Viability HepG2 for assorted molecules
system: HepG2; test: Cytotoxicity of the prodrug in human cells (CellTiter-Glo 2.0), HepG2; format: cell-based; settings: 10 µM, versus untreated control; mean ± SD
Field format: number, assumed % control, no unit text.

MOLECULE	UNIT_ABBREV	ASSAY_VALUE
CCOC(=O)[C@H](Cc1ccccc1)NP(=O)(CCOCC(OCCO)n1cnc2c(=O)[nH]cnc21)N[C@@H](Cc1ccccc1)C(=O)OCC (some centres unmarked) [21c]	% control	97
CCOC(=O)[C@H](Cc1ccccc1)NP(=O)(COCCC(OCCCO)n1cnc2c(=O)[nH]cnc21)N[C@@H](Cc1ccccc1)C(=O)OCC (some centres unmarked) [21e]	% control	106
CCOC(=O)[C@H](Cc1ccccc1)NP(=O)(COCC(OCCO)n1cnc2c(=O)[nH]cnc21)N[C@@H](Cc1ccccc1)C(=O)OCC (some centres unmarked) [21a]	% control	98
CCOC(=O)[C@H](Cc1ccccc1)NP(=O)(COCCC(OCCCO)n1cnc2c(=O)[nH]c(N)nc21)N[C@@H](Cc1ccccc1)C(=O)OCC (some centres unmarked) [21f]	% control	110
CCOC(=O)[C@H](Cc1ccccc1)NP(=O)(CCOCC(OCCOCP(=O)(N[C@@H](Cc1ccccc1)C(=O)OCC)N[C@@H](Cc1ccccc1)C(=O)OCC)n1cnc2c(=O)[nH]cnc21)N[C@@H](Cc1ccccc1)C(=O)OCC (some centres unmarked) [19a]	% control	116
CCOC(=O)[C@H](Cc1ccccc1)NP(=O)(COCC(OCCO)n1cnc2c(=O)[nH]c(N)nc21)N[C@@H](Cc1ccccc1)C(=O)OCC (mixture of isomers) [21b]	% control	93
CCOC(=O)[C@H](Cc1ccccc1)NP(=O)(CCOCC(OCCO)n1cnc2c(=O)[nH]c(N)nc21)N[C@@H](Cc1ccccc1)C(=O)OCC (some centres unmarked) [21d]	% control	107

Moving on to the next molecule.
Given item CCOC(=O)[C@H](Cc1ccccc1)NP(=O)(COCCC(OCCCO)n1ncc2c(=O)[nH]cnc21)N[C@@H](Cc1ccccc1)C(=O)OCC (some centres unmarked) [21g] , the value recorded as its Viability HepG2 is 111
